test system: T1, helical cargo-binding domain (HCBD) of mouse myosin VI (residues 1052-1096), GST removed
T1 chain: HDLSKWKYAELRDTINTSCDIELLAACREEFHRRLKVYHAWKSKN
test summary: sedimentation velocity analytical ultracentrifugation (AUC)
assay setup: chain shown with the change; 150 μM; parent: est. 3.8; read off a plot
readout type: other: s20,ww-value of the complex (S)

binder | readout type | unit spec | reading
mouse GIPC1 GH2 domain (residues 258-333), Q9Z0G0 G323Q (protein) SAFEEKAIEKVDDLLESYMGIRDTELAATMVELGKDKRNPDELAEALDERLGDFAFPDEFVFDVWQAIGDAKVGRY | other: s20,ww-value of the complex | S | 1.8
mouse GIPC1 GH2 domain (residues 258-333), Q9Z0G0 Y275A; M276E; I278Q; G323Q (protein) SAFEEKAIEKVDDLLESAEGQRDTELAATMVELGKDKRNPDELAEALDERLGDFAFPDEFVFDVWQAIGDAKVGRY | other: s20,ww-value of the complex | S | 1.3
mouse GIPC1 GH2 domain (residues 258-333), Q9Z0G0 I278Q; G323Q (protein) SAFEEKAIEKVDDLLESYMGQRDTELAATMVELGKDKRNPDELAEALDERLGDFAFPDEFVFDVWQAIGDAKVGRY | other: s20,ww-value of the complex | S | 1.8
mouse GIPC1 GH2 domain (residues 258-333), Q9Z0G0 Y275A; G323Q (protein) SAFEEKAIEKVDDLLESAMGIRDTELAATMVELGKDKRNPDELAEALDERLGDFAFPDEFVFDVWQAIGDAKVGRY | other: s20,ww-value of the complex | S | 1.6
mouse GIPC1 GH2 domain (residues 258-333), Q9Z0G0 Y275A; M276E; G323Q (protein) SAFEEKAIEKVDDLLESAEGIRDTELAATMVELGKDKRNPDELAEALDERLGDFAFPDEFVFDVWQAIGDAKVGRY | other: s20,ww-value of the complex | S | 1.3

Ref: paper PMC5461112
